- TEST TARGET: T1, human IL-36R (human, UniProt Q9HB29 20-575)
- T1 sequence (looked up): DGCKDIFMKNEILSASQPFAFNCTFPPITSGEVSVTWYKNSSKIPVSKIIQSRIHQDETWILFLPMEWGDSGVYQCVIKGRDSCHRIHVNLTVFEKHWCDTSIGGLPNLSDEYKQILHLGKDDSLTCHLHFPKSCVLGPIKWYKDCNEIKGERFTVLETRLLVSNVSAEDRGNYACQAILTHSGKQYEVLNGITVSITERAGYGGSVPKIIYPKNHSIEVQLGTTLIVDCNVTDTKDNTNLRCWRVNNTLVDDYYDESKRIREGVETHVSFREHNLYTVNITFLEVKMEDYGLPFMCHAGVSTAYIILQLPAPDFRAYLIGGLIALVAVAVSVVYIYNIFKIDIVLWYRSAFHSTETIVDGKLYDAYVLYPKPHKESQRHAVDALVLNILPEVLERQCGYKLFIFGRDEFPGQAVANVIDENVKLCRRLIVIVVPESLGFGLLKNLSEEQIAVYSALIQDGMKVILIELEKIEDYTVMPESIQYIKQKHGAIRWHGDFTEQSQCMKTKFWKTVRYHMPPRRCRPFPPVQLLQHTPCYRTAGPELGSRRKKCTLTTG
- ASSAY OVERVIEW: cell-based or functional assay
OBSERVABLE: IC50 of IL-6 release, NCI/ADR-RES cells stimulated with IL-36β (µg/mL)
Report only the number, with the unit µg/mL understood.

Some solved entries appear below for comparison.
>>> assay_value("anti-IL-36R chimeric antibody 900497 (antibody, V domains shown, Human-mouse chimera: human IgG1 heavy constant region with L234A and L235A (Eu numbering), human kappa light constant region) VH: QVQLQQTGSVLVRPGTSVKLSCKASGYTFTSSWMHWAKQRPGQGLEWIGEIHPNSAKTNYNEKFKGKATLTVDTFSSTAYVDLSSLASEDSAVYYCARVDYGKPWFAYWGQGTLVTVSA VL: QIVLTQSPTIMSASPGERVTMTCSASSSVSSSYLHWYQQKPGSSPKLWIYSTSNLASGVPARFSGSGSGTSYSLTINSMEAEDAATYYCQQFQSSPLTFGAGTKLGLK")
0.0204
>>> assay_value("humanized anti-IL-36R antibody 900534 (antibody, V domains shown, IgG1 (vector with L234A, L235A) and human kappa) VH: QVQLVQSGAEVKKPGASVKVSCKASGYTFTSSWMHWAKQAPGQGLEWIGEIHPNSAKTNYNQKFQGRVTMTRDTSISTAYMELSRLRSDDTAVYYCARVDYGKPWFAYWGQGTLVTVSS VL: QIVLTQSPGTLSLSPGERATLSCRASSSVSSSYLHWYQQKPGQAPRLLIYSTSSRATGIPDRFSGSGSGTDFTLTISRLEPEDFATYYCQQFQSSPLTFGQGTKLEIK")
0.0168

Consider the additional binder presented here.
Exercise: Quick one: give measured IC50 of IL-6 release, NCI/ADR-RES cells stimulated with IL-36β for humanized anti-IL-36R antibody 900527 (antibody, V domains shown, IgG1 (vector with L234A, L235A) and human kappa) VH: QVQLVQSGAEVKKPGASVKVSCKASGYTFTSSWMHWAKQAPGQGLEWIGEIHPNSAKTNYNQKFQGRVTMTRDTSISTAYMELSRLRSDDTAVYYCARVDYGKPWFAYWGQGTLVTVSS VL: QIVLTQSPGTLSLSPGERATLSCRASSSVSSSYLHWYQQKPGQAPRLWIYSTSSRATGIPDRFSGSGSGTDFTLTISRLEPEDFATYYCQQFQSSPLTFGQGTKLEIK
Solution: 0.0139
